# assay.name: gradient 5% acetonitrile 3 min, to 50% in 2 min, to 85% in 15 min, held 3 min, 100 µL/min
# condition.details: column: Zorbax Extend-C18 2.1 x 50 mm; eluents: water / acetonitrile, 0.1% formic acid
Parameter: RP-LC retention time. Scope: all listed entries.
Quick note: give the figure in s, leave out the unit.

These solved cases illustrate the format of a correct answer.
molecule: CN(C)S(=O)(=O)c1ccc2c(c1)N(CC(=O)NCc1cccc(F)c1)C(=O)C1CCCCN21 (stereo unspecified)
unit.annotation: s
result.value: 900

molecule: Cc1nc(C2(C)CCN(S(=O)(=O)c3ccc(F)c(C)c3)CC2)no1
unit.annotation: s
result.value: 927

molecule: CCOC(=O)c1c(C)[nH]c(C(=O)N2CCCC(C(=O)NCCC3=CCCCC3)C2)c1C (stereo unspecified)
unit.annotation: s
result.value: 893

molecule: Cc1cc(C)cc(NC(=O)C2CCCN(c3ncnc4c3nc3n4CCCCC3)C2)c1 (stereo unspecified)
unit.annotation: s
result.value: 907

molecule: Cc1ccc(CNC(=O)CN2C(=O)C3CCCCN3c3ccc(S(=O)(=O)N(C)C)cc32)cc1 (stereo unspecified)
unit.annotation: s
result.value: 922

Query :: Query: RP-LC retention time; subject: O=C(Nc1nc(-c2nc3ccccc3s2)cs1)c1c(F)cccc1F
Result :: 920

====

# assay.name: gradient 5% acetonitrile 3 min, to 50% in 2 min, to 85% in 15 min, held 3 min, 100 µL/min
# condition.details: column: Zorbax Extend-C18 2.1 x 50 mm; eluents: water / acetonitrile, 0.1% formic acid
Parameter: RP-LC retention time. Scope: all listed entries.
Quick note: number first, unit second.

These solved cases illustrate the format of a correct answer.
compound: Cc1noc(C2CN(C(=O)Nc3ccccc3F)CC23CCOCC3)n1 (centres undefined)
assay.endpoint: RP-LC retention time
result.value: 694 s

compound: CCn1ccc2oc(C)c(C(=O)N3CCN(c4ccc(OC)cc4)CC3)c2c1=O
assay.endpoint: RP-LC retention time
result.value: 682 s

compound: O=c1[nH]c2ccc(NCc3ccc(-c4ccccc4Cl)o3)cc2[nH]1
assay.endpoint: RP-LC retention time
result.value: 717 s

Here is the next item to consider.
Query :: Query: RP-LC retention time; subject: C=CCN1C(=O)C(C(=O)N2CCOCC2)C2CC1(C)Oc1ccccc12 (centres undefined)
Result :: 718 s

====

# assay.name: gradient 5% acetonitrile 3 min, to 50% in 2 min, to 85% in 15 min, held 3 min, 100 µL/min
# condition.details: column: Zorbax Extend-C18 2.1 x 50 mm; eluents: water / acetonitrile, 0.1% formic acid
Parameter: RP-LC retention time. Scope: all listed entries.
Quick note: give the figure in s, leave out the unit.

These solved cases illustrate the format of a correct answer.
compound: CCOC(=O)C1=C(C)NC2=C(C(=O)c3ccccc32)C1c1ccccc1OCC (stereo not given)
unit.annotation: s
RP-LC retention time: 961
--
compound: C=CCc1cccc(/C=N/NC(=O)C[NH+]2CCN(Cc3ccccc3)CC2)c1[O-]
unit.annotation: s
RP-LC retention time: 783
--
compound: O=C(c1ccc([N+](=O)[O-])cc1)N(Cc1ccccc1)Cc1ccco1
unit.annotation: s
RP-LC retention time: 935

Query :: Query: RP-LC retention time; subject: O=C1N(c2ccccc2)CC12CCN(S(=O)(=O)c1ccccc1)CC2
Result :: 957

Query :: Moving on to O=C(Nc1ccc(N2CCOCC2)cc1)C1CCCN(c2nccnc2Oc2ccccc2)C1 (stereo not given)
Result :: 852
